assay: Pharmacokinetics in male Beagle dogs after i.v. and p.o. administration; format: in vivo; settings: plasma, iv, Dog, i.v., 1 mg/kg, read-out: Clpl (plasma clearance)
measurement-kind: clearance

Problem: Which clearance value is on record for CO[C@@H]1COc2c(S(=O)(=O)NC(=O)Nc3c4c(cc5c3CCC5)CCC4)cnn2C1 ?
Solution: 1.8 mL/min/kg

###

Target: NLRP3 inflammasome (Homo sapiens)
Sequence (Q96P20 whole entry): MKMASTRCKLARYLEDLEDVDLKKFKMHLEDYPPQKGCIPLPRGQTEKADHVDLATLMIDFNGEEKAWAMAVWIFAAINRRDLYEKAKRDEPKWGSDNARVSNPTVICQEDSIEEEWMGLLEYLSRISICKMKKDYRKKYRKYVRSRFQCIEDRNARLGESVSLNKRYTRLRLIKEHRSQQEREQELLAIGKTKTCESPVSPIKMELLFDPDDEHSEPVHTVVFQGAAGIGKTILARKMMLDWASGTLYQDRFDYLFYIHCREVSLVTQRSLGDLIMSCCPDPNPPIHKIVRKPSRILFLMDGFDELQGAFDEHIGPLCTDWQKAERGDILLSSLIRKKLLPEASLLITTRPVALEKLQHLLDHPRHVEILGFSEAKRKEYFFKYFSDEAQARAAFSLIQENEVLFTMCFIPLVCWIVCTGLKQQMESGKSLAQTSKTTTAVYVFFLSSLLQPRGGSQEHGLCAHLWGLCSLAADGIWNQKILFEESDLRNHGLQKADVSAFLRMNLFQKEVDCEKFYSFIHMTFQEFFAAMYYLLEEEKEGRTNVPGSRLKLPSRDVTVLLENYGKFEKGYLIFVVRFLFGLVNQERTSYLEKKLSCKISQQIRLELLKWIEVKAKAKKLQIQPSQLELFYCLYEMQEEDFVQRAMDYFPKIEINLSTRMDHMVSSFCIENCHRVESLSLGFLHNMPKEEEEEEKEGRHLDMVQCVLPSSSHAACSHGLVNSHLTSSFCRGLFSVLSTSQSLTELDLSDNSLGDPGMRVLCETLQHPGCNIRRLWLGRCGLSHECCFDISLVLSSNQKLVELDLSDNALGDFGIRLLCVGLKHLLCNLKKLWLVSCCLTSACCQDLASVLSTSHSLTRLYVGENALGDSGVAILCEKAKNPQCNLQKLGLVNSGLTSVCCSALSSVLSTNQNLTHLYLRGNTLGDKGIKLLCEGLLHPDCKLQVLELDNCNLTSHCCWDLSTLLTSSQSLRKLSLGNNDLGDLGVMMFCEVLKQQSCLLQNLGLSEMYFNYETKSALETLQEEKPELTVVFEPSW
Assay: Inhibition of IL-1β production in LPS + ATP stimulated (canonical) human whole blood
Format: cell-based
Parameters: host or cells: fresh heparinised human whole blood from healthy volunteers
Conditions: read-out: Geo Av IC50, IL-1β
Protocol: Inflammasome activation and whole blood assays were essentially carried out as described earlier. Details can be found in the supplementary information section accompanying this publication. […] Cell viability was determined by addition of an equal volume of CellTiter-Glo® 2.0 reagent (Promega) to the remaining cells/supernatant in each well. Intracellular Caspase-1 activity was measured using the Caspase-Glo® assay (Promega) according to the manufacturer’s instructions. […]
measurement-kind: pIC50
Remember, pIC50 is on a log scale: it is -log10 of the molar concentration.

Problem: Would you kindly share the measured pIC50 for CO[C@@H]1COc2c(S(=O)(=O)NC(=O)Nc3c4c(cc5c3CCC5)CCC4)cnn2C1 [JT002] ?
Solution: 7.00

###

molecular target: NLRP3 inflammasome (Mus musculus, UniProt Q8R4B8); test: Inhibition of IL-1β production in mouse PBMCs stimulated by LPS + ATP; type: cell-based; design: host or cells: mouse PBMCs; mouse bone-marrow derived macrophages; mouse whole blood (C57BL/6 in the ex vivo study); conditions: Mouse PBMC, read-out: Geo Av IC50, IL-1β
Sequence (Q8R4B8 whole entry): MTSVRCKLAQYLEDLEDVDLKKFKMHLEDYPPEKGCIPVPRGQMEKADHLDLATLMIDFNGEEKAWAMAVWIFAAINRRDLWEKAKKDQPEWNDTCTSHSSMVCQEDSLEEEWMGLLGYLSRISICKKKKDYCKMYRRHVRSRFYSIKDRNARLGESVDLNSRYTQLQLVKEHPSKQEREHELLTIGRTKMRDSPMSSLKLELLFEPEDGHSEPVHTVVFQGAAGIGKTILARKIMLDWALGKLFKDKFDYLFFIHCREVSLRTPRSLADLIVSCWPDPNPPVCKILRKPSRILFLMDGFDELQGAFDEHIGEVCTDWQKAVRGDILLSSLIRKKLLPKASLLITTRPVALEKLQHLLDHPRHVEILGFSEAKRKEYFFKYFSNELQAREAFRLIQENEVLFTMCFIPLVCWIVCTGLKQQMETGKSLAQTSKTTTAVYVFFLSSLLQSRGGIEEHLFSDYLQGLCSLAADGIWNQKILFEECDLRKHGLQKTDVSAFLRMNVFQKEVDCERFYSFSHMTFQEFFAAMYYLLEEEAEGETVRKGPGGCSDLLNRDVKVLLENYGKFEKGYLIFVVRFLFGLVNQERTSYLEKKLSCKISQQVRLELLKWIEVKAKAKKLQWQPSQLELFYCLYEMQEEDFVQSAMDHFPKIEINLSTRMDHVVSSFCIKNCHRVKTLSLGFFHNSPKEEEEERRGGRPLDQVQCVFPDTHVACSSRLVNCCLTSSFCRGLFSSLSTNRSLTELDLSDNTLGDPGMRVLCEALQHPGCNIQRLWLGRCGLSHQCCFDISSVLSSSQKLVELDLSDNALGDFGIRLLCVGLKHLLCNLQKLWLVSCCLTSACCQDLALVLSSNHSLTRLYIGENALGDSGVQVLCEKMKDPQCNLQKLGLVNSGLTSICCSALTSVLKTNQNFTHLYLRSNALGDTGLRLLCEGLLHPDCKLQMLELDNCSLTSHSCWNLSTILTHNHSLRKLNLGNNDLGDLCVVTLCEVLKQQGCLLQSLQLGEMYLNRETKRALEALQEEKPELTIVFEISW
measurement-kind: IC50 (nM)
Dear colleague, please return just the value in nM, with no unit written.

Problem: Consider the compound CO[C@@H]1COc2c(S(=O)(=O)NC(=O)Nc3c4c(cc5c3CCC5)CCC4)cnn2C1 and give its measured IC50.
Solution: 7
